# SYSTEM_TESTED: human Nav1.7 (Homo sapiens)
# Construct: expressed in transfected cells; host or cells: HEK 293
# Sequence (Q15858 whole entry): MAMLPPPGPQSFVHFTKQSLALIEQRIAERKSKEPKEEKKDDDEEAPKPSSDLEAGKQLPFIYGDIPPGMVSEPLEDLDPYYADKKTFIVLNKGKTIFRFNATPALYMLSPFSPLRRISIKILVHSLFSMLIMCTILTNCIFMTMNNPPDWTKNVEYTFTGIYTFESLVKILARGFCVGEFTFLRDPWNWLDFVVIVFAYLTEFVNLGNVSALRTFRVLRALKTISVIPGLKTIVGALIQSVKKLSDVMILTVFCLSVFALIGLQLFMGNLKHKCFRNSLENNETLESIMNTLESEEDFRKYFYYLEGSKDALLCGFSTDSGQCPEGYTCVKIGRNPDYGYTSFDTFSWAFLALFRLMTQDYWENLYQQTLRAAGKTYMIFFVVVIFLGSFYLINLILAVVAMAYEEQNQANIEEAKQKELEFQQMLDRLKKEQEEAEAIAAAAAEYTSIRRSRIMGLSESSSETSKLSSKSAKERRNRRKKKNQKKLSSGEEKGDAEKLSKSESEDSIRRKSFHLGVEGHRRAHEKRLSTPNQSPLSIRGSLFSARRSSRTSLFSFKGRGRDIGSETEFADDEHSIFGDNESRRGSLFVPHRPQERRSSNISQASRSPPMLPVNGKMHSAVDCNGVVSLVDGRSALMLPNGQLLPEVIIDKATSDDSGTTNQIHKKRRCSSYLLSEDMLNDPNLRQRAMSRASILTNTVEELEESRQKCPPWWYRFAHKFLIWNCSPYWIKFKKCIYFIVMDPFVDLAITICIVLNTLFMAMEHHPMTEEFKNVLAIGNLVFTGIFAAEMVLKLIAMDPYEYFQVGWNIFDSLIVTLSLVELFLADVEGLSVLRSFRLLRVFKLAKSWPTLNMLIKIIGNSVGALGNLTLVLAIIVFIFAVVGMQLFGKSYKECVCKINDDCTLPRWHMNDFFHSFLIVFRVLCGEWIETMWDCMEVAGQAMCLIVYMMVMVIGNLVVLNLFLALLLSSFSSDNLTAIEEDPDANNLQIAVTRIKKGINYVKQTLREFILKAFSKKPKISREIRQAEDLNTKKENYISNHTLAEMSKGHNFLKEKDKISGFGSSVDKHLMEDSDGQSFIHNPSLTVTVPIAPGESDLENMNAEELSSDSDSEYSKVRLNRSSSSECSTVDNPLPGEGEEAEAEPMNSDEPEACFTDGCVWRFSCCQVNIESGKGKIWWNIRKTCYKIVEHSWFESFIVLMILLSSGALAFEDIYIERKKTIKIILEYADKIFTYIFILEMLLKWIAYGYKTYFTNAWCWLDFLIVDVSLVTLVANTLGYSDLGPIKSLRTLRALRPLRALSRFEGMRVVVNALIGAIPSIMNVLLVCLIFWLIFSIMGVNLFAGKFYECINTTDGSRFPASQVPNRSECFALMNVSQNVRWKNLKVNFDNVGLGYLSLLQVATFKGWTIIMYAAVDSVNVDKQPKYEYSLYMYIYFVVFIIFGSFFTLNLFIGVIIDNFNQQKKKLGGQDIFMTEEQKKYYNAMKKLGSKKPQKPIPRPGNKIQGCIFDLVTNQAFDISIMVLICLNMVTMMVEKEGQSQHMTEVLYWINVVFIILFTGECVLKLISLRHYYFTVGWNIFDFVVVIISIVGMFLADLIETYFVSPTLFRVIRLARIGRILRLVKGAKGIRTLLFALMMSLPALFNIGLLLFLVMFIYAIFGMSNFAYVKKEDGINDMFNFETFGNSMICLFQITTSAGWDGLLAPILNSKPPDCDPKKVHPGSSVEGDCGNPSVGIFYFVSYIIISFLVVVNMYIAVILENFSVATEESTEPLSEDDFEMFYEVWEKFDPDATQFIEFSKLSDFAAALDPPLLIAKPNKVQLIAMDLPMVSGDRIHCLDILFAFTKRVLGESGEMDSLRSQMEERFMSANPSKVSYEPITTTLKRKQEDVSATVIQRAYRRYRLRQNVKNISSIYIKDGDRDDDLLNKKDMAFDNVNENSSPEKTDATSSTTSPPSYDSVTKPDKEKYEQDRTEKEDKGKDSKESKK
# ASSAY: IonWorks Quattro automated patch-clamp, inactivated state block of Nav1.7
# Assay type: cell-based
# CONDITIONS: channels stably expressed in HEK 293 cells; double-pulse protocol, inactivated state block; read-out: potency for the Nav 1.7 sodium ion channel (IC50, as measured by IonWorks)
Field 'label' (enum: label 1 / label 0). Set to label 1 when IC50 is strictly under 20 nM; else label 0.

Regarding C[C@@H](N)CNCCCCNc1cc(F)c(S(=O)(=O)Nc2ncc(F)s2)cc1Cl , kindly confirm whether its IC50 is beneath 20 nM.
label 1

Now consider N[C@@H]1CCC[C@H]1NCCCCNc1cc(F)c(S(=O)(=O)Nc2ncns2)cc1F .
label 0

Now consider N[C@H]1CCC[C@@H]1NCCCCNc1cc(F)c(S(=O)(=O)Nc2ncc(F)s2)cc1Cl .
label 1

Now consider N[C@@H]1CCCC[C@H]1NCCCCNc1cc(F)c(S(=O)(=O)Nc2nccs2)cc1Cl .
label 1

Now consider CC(C)(CN)NCCCCNc1cc(F)c(S(=O)(=O)Nc2nccs2)cc1Cl .
label 0

Now consider NC1(CNCCCCNc2cc(F)c(S(=O)(=O)Nc3ncc(F)s3)cc2Cl)CCC1 .
label 1

Now consider O=S(=O)(Nc1ncns1)c1cc(Br)c(NCCCCNC[C@H]2CCN2)cc1F .
label 0

Now consider NC1(CNCCCCNc2cc(F)c(S(=O)(=O)Nc3ncns3)cc2Br)CC1 .
label 1

Now consider N[C@@H]1CCC[C@H]1NCCCCNc1cc(F)c(S(=O)(=O)Nc2ncc(F)s2)cc1Cl .
label 1

Now consider CNCCCNCCCCNc1cc(F)c(S(=O)(=O)Nc2ncns2)cc1Br .
label 1

Now consider O=S(=O)(Nc1nccs1)c1cc(Br)c(NCCCCN[C@@H]2CCNC2)cc1F .
label 1

Now consider CNCCNCCCCNc1cc(F)c(S(=O)(=O)Nc2nccs2)cc1Cl .
label 1

Now consider O=S(=O)(Nc1nccs1)c1cc(Cl)c(NCCCCNC[C@@H]2C[C@H](C(F)(F)F)CN2)cc1F .
label 0

Now consider C[C@H]1CC[C@@H](CNCCCCNc2cc(F)c(S(=O)(=O)Nc3nccs3)cc2Cl)N1 .
label 1

Now consider C[C@H](CN)NCCCCNc1cc(F)c(S(=O)(=O)Nc2nccs2)cc1Cl .
label 1

Now consider CCNCCNCCCCNc1cc(F)c(S(=O)(=O)Nc2ncns2)cc1Br .
label 1

Now consider CNCCNCCCCNc1cc(F)c(S(=O)(=O)Nc2ncc(Cl)s2)cc1Cl .
label 1

Now consider NCCCNCCCCNc1cc(F)c(S(=O)(=O)Nc2ncns2)cc1Cl .
label 0
